Data provenance is patent US20080139620A1.

# tgt: Activated CDK2/CyclinA (Homo sapiens)
# test.method.notes: Activated CDK2/CyclinA kinase inhibitory activity assay
endpoint.name: pIC50
Answer as the number alone; pIC50 is minus log10 of concentration in mol/L.

Give the measured pIC50 of CS(=O)(=O)N1CCC(NC(=O)c2n[nH]cc2NC(=O)c2c(F)cccc2F)CC1 .
8.66

====

# tgt: GSK3-β (Homo sapiens)
# Sequence (P49841 whole entry): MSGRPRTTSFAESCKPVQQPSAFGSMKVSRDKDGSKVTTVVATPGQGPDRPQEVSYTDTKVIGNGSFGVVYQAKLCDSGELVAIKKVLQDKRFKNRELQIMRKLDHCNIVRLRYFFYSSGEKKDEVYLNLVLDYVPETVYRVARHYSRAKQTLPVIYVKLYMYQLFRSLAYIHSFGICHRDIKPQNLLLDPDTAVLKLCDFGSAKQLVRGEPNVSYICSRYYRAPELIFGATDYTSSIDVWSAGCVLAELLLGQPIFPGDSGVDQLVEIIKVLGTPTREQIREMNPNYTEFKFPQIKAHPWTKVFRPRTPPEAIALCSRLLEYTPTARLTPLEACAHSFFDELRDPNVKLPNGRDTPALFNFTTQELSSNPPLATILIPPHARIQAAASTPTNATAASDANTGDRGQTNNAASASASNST
endpoint.name: pIC50
# pIC50 is unitless: minus log10 of the molar concentration; print number only

Find the recorded pIC50 belonging to CS(=O)(=O)N1CCC(NC(=O)c2n[nH]cc2NC(=O)c2c(F)cccc2F)CC1 and report it.
7.85

====

# test.method.notes: Determination of oral bioavailability
# Format: in vivo
# assay.conditions: BALB/c, mouse, plasma, mice, 5 mg/kg PO vs 1 mg/kg IV
endpoint.name: bioavailability

State the recorded bioavailability for this entry: CS(=O)(=O)N1CCC(NC(=O)c2n[nH]cc2NC(=O)c2c(Cl)cccc2Cl)CC1
40 to 50%
